- Assayed System: HumRadA33 (Pyrococcus furiosus, UniProt O74036 108-349, S167K | V168A | I169M | W170Y | N175G | I182L | R183L | D192S | P193G | D194S | …)
- Assay Name: ITC
Observed Property: pKd
Friendly reminder that pKd comes from taking -log10 of the concentration in mol/L.

Entry Ac-NLGTFMRADEYLKKRA-NH2 [RadA oligomerisation peptide] ; pKd = 4.89
